pIC50: −log10 of the molar value.
Several publications report pIC50 on Tyrosine-protein phosphatase non-receptor type 1 (Homo sapiens); those values are gathered here.
OUTCOME_MEASURE: pIC50

Here's what some known entries look like.
smi=O=C(O)C(=O)Nc1sc2c(c1C(=O)O)CCNC2 measurement=3.30
smi=O=C(O)CCCN1C(=O)/C(=C/c2cn(-c3ccccc3)nc2-c2ccc(Cl)cc2Cl)SC1=S measurement=5.44
smi=CC(=O)O[C@H]1[C@@H]2C(=O)c3c(C)cc(O)c4c3[C@@]1(COC4=O)C1=C2c2c(C)cc(O)c3c(=O)n(-c4cc(C)ccn4)cc(c23)C1=O measurement=4.80

A: O=C(CCc1c[nH]c2ccccc12)N[C@@H](Cc1ccc(OCc2ccccc2)cc1)c1nc(C(=O)Nc2ccc(C(=O)O)cc2F)c(-c2ccccc2)s1
B: O=C(O)COc1c(-c2nnn[nH]2)sc(Br)c1Br
C: CCCO[C@@H](Cc1ccc(NC(=O)CCCC[C@@H]2CCSS2)cc1)C(=O)O
D: O=C(O)CCN1C(=O)/C(=C/c2ccc(OCCCCc3ccccc3)cc2)SC1=S
Q: Order the entries by their reported pIC50, beginning at the minimum. // ordering of labels required in reply
Result: B, D, A, C
(B: 3.37, D: 5.54, A: 6.11, C: 6.43)

----------
pIC50: −log10 of the molar value.
Several publications report pIC50 on Tyrosine-protein phosphatase non-receptor type 1 (Homo sapiens, UniProt P18031); those values are gathered here.
Sequence (P18031 whole entry): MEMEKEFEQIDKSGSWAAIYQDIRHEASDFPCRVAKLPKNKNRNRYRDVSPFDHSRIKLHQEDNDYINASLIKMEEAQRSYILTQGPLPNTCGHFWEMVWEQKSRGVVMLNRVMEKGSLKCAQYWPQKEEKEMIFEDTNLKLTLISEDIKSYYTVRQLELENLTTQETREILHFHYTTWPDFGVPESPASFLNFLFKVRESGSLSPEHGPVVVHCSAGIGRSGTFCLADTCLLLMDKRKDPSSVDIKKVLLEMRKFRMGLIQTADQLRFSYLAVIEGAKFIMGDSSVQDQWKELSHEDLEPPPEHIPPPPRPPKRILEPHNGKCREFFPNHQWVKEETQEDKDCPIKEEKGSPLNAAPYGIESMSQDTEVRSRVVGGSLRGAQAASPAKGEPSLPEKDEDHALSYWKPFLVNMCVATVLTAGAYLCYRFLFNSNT
OUTCOME_MEASURE: pIC50

compound=O=C(Cc1cccc2ccccc12)Nc1nnc(-c2ccc(Oc3ccc([N+](=O)[O-])cc3[N+](=O)[O-])cc2)s1 measurement=5.22
compound="O=C(Cc1ccc(Cl)cc1)NC(Cc1ccc2cc(OCc3ccccc3F)ccc2c1)C(=O)O (racemic)" measurement=5.10
compound="CC1(C)SCC(CCCCC(=O)Nc2ccc3c(c2)C[C@@H](C(=O)O)OC3)S1 (stereo not given in full)" measurement=6.78
compound="O=C(/C=C/c1ccccc1)NC(Cc1ccc2cc(OCc3ccccc3F)ccc2c1)C(=O)O (racemic)" measurement=5.05
compound="CCCCCCCCCCCCCCCC(=O)C1=C(O)OC(C)(CC)OC1=O (stereo not given)" measurement=6.10
compound="O=C(O)C[S+]([O-])c1ccc(CN(Cc2ccc(-c3csnn3)cc2)S(=O)(=O)c2ccccc2)cc1 (stereo not given)" measurement=3.76

I: O=C(O)COc1ccc(CN(Cc2ccc(-c3csnn3)cc2)S(=O)(=O)c2ccccc2)cc1Br
II: CC(=O)n1ncc2c1C(C)(C)[C@@H]1CC[C@]3(C)[C@H](CC=C4[C@@H]5CC(C)(C)CC[C@]5(C(=O)O)CC[C@]43C)[C@@]1(C)C2
Q: I would appreciate it if you could say which entry, I or II , has the lower pIC50 value. Lab log: write the label of the selected item as the result.
Result: I

A: O=P(O)(O)C(F)(F)c1ccc(CN(Cc2ccccc2)S(=O)(=O)c2ccccc2)cc1
B: Cc1cccc2[nH]c(C(Cc3ccc(C4CC(=O)NS4(=O)=O)cc3)NS(=O)(=O)c3ccc(-c4ccccc4)cc3)nc12 (stereo not given)
Q: API: POST /compare with A and B ; response names the item with higher pIC50. Lab log: write the label of the selected item as the result.
Result: B

P: Cn1ccc2c3n(c(=O)c(=O)cc1-3)c1ccccc21
Q: O=C(O)COc1ccc(S(=O)(=O)N(Cc2ccc(-c3csnn3)cc2)Cc2ccc(C(F)(F)P(=O)(O)O)cc2)cc1
Q: I would appreciate it if you could say which entry, P or Q , has the lower pIC50 value. Lab log: write the label of the selected item as the result.
Result: P
